Test: Antiproliferative activity against […] B16 cells assessed as inhibition of cell proliferation incubated for 72 hrs by MTT assay
Format: functional, cell-based
Conditions: B16, 72 h
// assign TRUE if IC50 falls strictly below 2 µM, else FALSE (ties count as FALSE)

>>> class_label("O=C(O)CCC(=O)OCCCCCCSc1ccc([N+](=O)[O-])c2nonc12")
"FALSE"
>>> class_label("O=C(CCC(=O)N1CCOCC1)OCCCCCCSc1ccc([N+](=O)[O-])c2nonc12")
"TRUE"
>>> class_label("COc1ccc(NC(=O)CCC(=O)OCCCCCCSc2ccc([N+](=O)[O-])c3nonc23)cc1OC")
"FALSE"

[ask] Please check: IC50 for O=C(CCC(=O)OCCCCCCSc1ccc([N+](=O)[O-])c2nonc12)Nc1ccccc1Cl , strictly under 2 µM or not?
[reply] FALSE

[ask] Please check: IC50 for O=[N+]([O-])c1ccc(SCCCCCCO)c2nonc12 , strictly under 2 µM or not?
[reply] TRUE

[ask] Please check: IC50 for O=C(CCC(=O)OCCCCCCSc1ccc([N+](=O)[O-])c2nonc12)Nc1ccc(C(F)(F)F)cc1 , strictly under 2 µM or not?
[reply] TRUE

[ask] Please check: IC50 for O=C(CCC(=O)N1CCCCC1)OCCCCCCSc1ccc([N+](=O)[O-])c2nonc12 , strictly under 2 µM or not?
[reply] TRUE

[ask] Please check: IC50 for O=C(CCC(=O)OCCCCCCSc1ccc([N+](=O)[O-])c2nonc12)Nc1ccc(F)c(Cl)c1 , strictly under 2 µM or not?
[reply] FALSE

[ask] Please check: IC50 for O=C(CCC(=O)OCCCCCCSc1ccc([N+](=O)[O-])c2nonc12)NCCN1CCOCC1 , strictly under 2 µM or not?
[reply] TRUE

[ask] Please check: IC50 for CN(C)CCCNC(=O)CCC(=O)OCCCCCCSc1ccc([N+](=O)[O-])c2nonc12 , strictly under 2 µM or not?
[reply] TRUE

[ask] Please check: IC50 for O=C(CCC(=O)OCCCCCCSc1ccc([N+](=O)[O-])c2nonc12)Nc1ccc(Br)cc1 , strictly under 2 µM or not?
[reply] FALSE

[ask] Please check: IC50 for O=C(CCC(=O)OCCCCCCSc1ccc([N+](=O)[O-])c2nonc12)Nc1ccccc1F , strictly under 2 µM or not?
[reply] FALSE

###

Assay: in vivo
Conditions: Sprague-Dawley, rat, po, 80 mg/kg
Description: Tmax in Sprague-Dawley rat at 80 mg/kg, po administered as single dose measured upto 48 hrs by LC-MS/MS analysis
metric.name: Tmax at 48 h (h)
Numbers only, in h.

[ask] Read off the recorded Tmax at 48 h for CN(C)CCCNC(=O)CCC(=O)OCCCCCCSc1ccc([N+](=O)[O-])c2nonc12
[reply] 2.33

###

Test: Antiproliferative activity against […] B16 cells assessed as inhibition of cell proliferation incubated for 72 hrs by MTT assay
Type: functional, cell-based
Details: B16, 72 h
Record form. Attribute: pIC50. Fill in for each entry.
One number for each entry, as −log10 of the molar value.

>>> observed_result("O=C(CCC(=O)OCCCCCCSc1ccc([N+](=O)[O-])c2nonc12)Nc1ccc(F)cc1")
5.69
>>> observed_result("CCN(CC)CCCNC(=O)CCC(=O)OCCCCCCSc1ccc([N+](=O)[O-])c2nonc12")
5.53

Note: attention shifts to another entry.
[ask] Read off the recorded pIC50 for Cc1ccccc1NC(=O)CCC(=O)OCCCCCCSc1ccc([N+](=O)[O-])c2nonc12
[reply] 5.19

###

Target: UniProtKB Q29550
Sequence (Q29550 whole entry): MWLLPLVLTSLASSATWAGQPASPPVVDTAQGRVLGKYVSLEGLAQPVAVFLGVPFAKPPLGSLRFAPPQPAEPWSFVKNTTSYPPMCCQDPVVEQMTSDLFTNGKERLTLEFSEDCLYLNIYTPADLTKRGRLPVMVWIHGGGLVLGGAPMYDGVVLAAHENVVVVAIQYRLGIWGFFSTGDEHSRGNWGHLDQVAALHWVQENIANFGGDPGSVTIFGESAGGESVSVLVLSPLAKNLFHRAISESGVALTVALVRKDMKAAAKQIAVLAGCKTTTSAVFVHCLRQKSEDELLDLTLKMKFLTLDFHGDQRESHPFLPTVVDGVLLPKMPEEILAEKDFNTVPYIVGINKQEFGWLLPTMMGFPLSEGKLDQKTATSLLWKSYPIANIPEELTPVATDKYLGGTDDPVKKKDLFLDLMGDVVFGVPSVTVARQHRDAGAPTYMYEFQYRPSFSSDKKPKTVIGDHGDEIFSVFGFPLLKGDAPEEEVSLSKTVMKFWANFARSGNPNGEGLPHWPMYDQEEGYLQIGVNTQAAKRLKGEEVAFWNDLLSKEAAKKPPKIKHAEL
Test: Stability of the compound assessed as pig liver carboxylesterase-mediated compound hydrolysis at 10 mM measured after 24 hrs by HPLC analysis
Assay type: ADME
Conditions: read-out: Drug degradation
metric.name: metabolised at 24 h, 10000 µM

[ask] Give the observed metabolised at 24 h, 10000 µM of CN(C)CCCNC(=O)CCC(=O)OCCCCCCSc1ccc([N+](=O)[O-])c2nonc12 for UniProtKB Q29550.
[reply] 45%

###

Experiment: in vivo
Settings: Sprague-Dawley, rat, po, 80 mg/kg
Description: Terminal half life in Sprague-Dawley rat at 80 mg/kg, po administered as single dose measured upto 48 hrs by LC-MS/MS analysis
metric.name: half-life at 48 h
Express your answer as a number followed by its unit.

[ask] Read off the recorded half-life at 48 h for CN(C)CCCNC(=O)CCC(=O)OCCCCCCSc1ccc([N+](=O)[O-])c2nonc12
[reply] 7.28 h

###

Record form. Attribute: log10 of IC50. Fill in for each entry.
Biological target: Glutathione S-transferase Mu 2 (Homo sapiens, UniProt P28161)
Sequence (P28161 whole entry): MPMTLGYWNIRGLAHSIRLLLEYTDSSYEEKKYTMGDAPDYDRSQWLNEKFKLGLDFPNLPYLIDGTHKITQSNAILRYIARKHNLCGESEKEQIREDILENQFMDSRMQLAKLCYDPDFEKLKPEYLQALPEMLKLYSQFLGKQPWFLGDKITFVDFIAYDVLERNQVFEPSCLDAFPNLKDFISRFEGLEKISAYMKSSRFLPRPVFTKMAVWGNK
All values: log10 IC50 [nM].

Observe how each entry below is paired with its result.
>>> observed_result("CN(C)CCCNC(=O)CCC(=O)OCCCCCCSc1ccc([N+](=O)[O-])c2nonc12")
1.95
>>> observed_result("O=C(CCC(=O)OCCCCCCSc1ccc([N+](=O)[O-])c2nonc12)Nc1ccccc1F")
2.54
>>> observed_result("Cc1ccccc1NC(=O)CCC(=O)OCCCCCCSc1ccc([N+](=O)[O-])c2nonc12")
2.64
>>> observed_result("O=C(CCC(=O)OCCCCCCSc1ccc([N+](=O)[O-])c2nonc12)Nc1ccc(F)cc1")
2.51
>>> observed_result("O=[N+]([O-])c1ccc(SCCCCCCO)c2nonc12")
1.30
>>> observed_result("O=C(O)CCC(=O)OCCCCCCSc1ccc([N+](=O)[O-])c2nonc12")
2.20
>>> observed_result("CN(C)CCNC(=O)CCC(=O)OCCCCCCSc1ccc([N+](=O)[O-])c2nonc12")
2.20
>>> observed_result("O=C(CCC(=O)OCCCCCCSc1ccc([N+](=O)[O-])c2nonc12)Nc1ccc(C(F)(F)F)cc1")
1.95

Kindly give each listed record's log10 of IC50.
1. O=C(CCC(=O)OCCCCCCSc1ccc([N+](=O)[O-])c2nonc12)Nc1ccc(Br)cc1
2. COc1ccc(NC(=O)CCC(=O)OCCCCCCSc2ccc([N+](=O)[O-])c3nonc23)cc1OC
3. O=C(CCC(=O)OCCCCCCSc1ccc([N+](=O)[O-])c2nonc12)Nc1cccc(Cl)c1
4. O=C(CCC(=O)N1CCCCC1)OCCCCCCSc1ccc([N+](=O)[O-])c2nonc12
5. O=C(CCC(=O)OCCCCCCSc1ccc([N+](=O)[O-])c2nonc12)Nc1ccccc1

[reply]
4.51
2.56
3.04
2.04
2.85

###

Assay: in vivo
Conditions: Sprague-Dawley, rat, po, 80 mg/kg
Description: AUC (0 to t) in Sprague-Dawley rat at 80 mg/kg, po administered as single dose measured upto 48 hrs by LC-MS/MS analysis
metric.name: AUC(0-t) at 48 h (ng·h/mL)
One number for each entry, in ng·h/mL.

[ask] Read off the recorded AUC(0-t) at 48 h for CN(C)CCCNC(=O)CCC(=O)OCCCCCCSc1ccc([N+](=O)[O-])c2nonc12
[reply] 6420

###

Target: Glutathione S-transferase P (Homo sapiens)
Sequence (P09211 whole entry): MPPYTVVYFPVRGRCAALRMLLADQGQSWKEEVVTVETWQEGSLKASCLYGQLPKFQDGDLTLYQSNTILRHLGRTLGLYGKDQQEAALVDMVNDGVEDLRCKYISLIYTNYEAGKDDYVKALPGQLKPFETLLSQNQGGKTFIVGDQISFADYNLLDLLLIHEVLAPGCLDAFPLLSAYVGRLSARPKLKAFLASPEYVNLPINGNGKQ
// assign true (1) if IC50 falls strictly below 0.5 µM, else false (0) (ties count as false (0))

>>> class_label("CN(C)CCCNC(=O)CCC(=O)OCCCCCCSc1ccc([N+](=O)[O-])c2nonc12")
"true (1)"
>>> class_label("COc1ccc(NC(=O)CCC(=O)OCCCCCCSc2ccc([N+](=O)[O-])c3nonc23)cc1")
"true (1)"
>>> class_label("COc1ccc(NC(=O)CCC(=O)OCCCCCCSc2ccc([N+](=O)[O-])c3nonc23)cc1OC")
"false (0)"
>>> class_label("O=C(CCC(=O)OCCCCCCSc1ccc([N+](=O)[O-])c2nonc12)Nc1ccc(Br)cc1")
"false (0)"

[ask] Please check: IC50 for O=C(O)CCC(=O)OCCCCCCSc1ccc([N+](=O)[O-])c2nonc12 , strictly under 0.5 µM or not?
[reply] false (0)

[ask] Please check: IC50 for O=C(CCC(=O)OCCCCCCSc1ccc([N+](=O)[O-])c2nonc12)Nc1ccccc1Cl , strictly under 0.5 µM or not?
[reply] false (0)

[ask] Please check: IC50 for CCN(CC)CCCNC(=O)CCC(=O)OCCCCCCSc1ccc([N+](=O)[O-])c2nonc12 , strictly under 0.5 µM or not?
[reply] false (0)

[ask] Please check: IC50 for O=C(CCC(=O)OCCCCCCSc1ccc([N+](=O)[O-])c2nonc12)Nc1ccc(C(F)(F)F)cc1 , strictly under 0.5 µM or not?
[reply] false (0)

[ask] Please check: IC50 for O=C(CCC(=O)OCCCCCCSc1ccc([N+](=O)[O-])c2nonc12)Nc1ccccc1F , strictly under 0.5 µM or not?
[reply] false (0)
